GI50 by entry:
System: SNB-19
assayText: NCI tumour cell line growth inhibition, 48 h
Calls of active or inactive are those of the source. Rule as the data show it: active = GI50 up to about 1.1 µM and inactive = higher.

Field: example entries. Status: answers known.
CCOC(=O)C1=C(C)N(Cc2ccccc2)C(C)=C(C(=O)OCC)C1c1ccccc1O = 43.2 µM (inactive)
O=C(Nc1nc2ncn(CC(COc3ccccc3)OC(=O)c3ccccc3)c2c(=O)[nH]1)c1ccccc1 (stereo not drawn) = > 100 µM (inactive)
COc1cc2c3c(c1OC)C1(C=CC(=O)C=C1)C[C@H]3N(C)CC2 = > 100 µM (inactive)

### Prompt # lookup: GI50 of Nc1cn(C2OC(CC(c3ccccc3)(c3ccccc3)c3ccccc3)C(O)C2O)c(=O)[nH]c1=O (stereo not drawn)
### Response 26.8 µM (inactive)

### Prompt Repeat for the following compound: COc1ccc(/N=N/c2c(C)c(C#N)c(=S)n(C3OC(COC(C)=O)C(OC(C)=O)C(OC(C)=O)C3OC(C)=O)c2-c2ccccc2)cc1 (stereo not drawn)
### Response 11 µM (inactive)

====

System: HOP-62
assayText: NCI tumour cell line growth inhibition, 48 h
The source made the active and inactive calls. No stated cut-off is given here; in the data, active = GI50 up to about 1.1 µM and inactive = higher.
Hi! Could you answer with just one of these? 1.0 (active), 0.0 (inactive)

Worked examples follow.
CCN(CC)CCO/N=C1/C=C2CCC3C(CC[C@@]4(C)C3CC[C@]4(C)O)[C@@]2(C)CC1 (some centres not stated) = 0.0
CS/C(=N\C#N)NC1CC(n2cc(C)c(=O)[nH]c2=O)OC1CO (configuration not stated) = 0.0
Nc1c(C(=O)N/N=C/c2ccc(Cl)cc2)sc(=S)n1-c1ccccc1 = 0.0
CCC/C=C/C=C/C(=O)OC1C(C)C2(O)C3C=C(C)C(=O)C3CC(COC(C)=O)=CC2C2C(C)(C)C12OC(=O)C(C)C (configuration not stated) = 1.0
COc1cc(C2c3cc4c(cc3OC(NNc3ccccc3)C2C)OCO4)cc(OC)c1OC (configuration not stated) = 1.0
CN(C)C(=S)/N=c1\ssc(=S)n1Cc1ccco1 = 0.0
CCOC(=O)c1cccc(/N=N/c2ncc(/C=C/C(=O)OC)[nH]2)c1 = 0.0
O=C1OC2CCCC[C@@H]2C2C[C@]34CCCCC3[C@@H](C(=O)O4)C12 (some centres not stated) = 0.0
CCN(CC)CCNc1ccc2ncn3c4ccc(OC)cc4c(=O)c1c23 = 0.0
COc1ccc(N2C(=O)C3c4[nH]c5c(C)cccc5c4C4CCC(C(C)(C)C)CC4C3C2=O)cc1 (configuration not stated) = 0.0

### Prompt Name the outcome recorded for Nc1ncnn2c(C3OC(CO)C(O)C3O)ccc12 (configuration not stated) in the assay.
### Response 1.0

### Prompt Repeat for the following compound: Nc1cn(C2OC(CC(c3ccccc3)(c3ccccc3)c3ccccc3)C(O)C2O)c(=O)[nH]c1=O (configuration not stated)
### Response 0.0

====

Tested on: IGROV-1
assayText: NCI tumour cell line growth inhibition, 48 h
Active and inactive are the calls of the source. No stated cut-off is given here; in the data, active = GI50 up to about 1.1 µM and inactive = higher.
measuredEndpoint: GI50

Field: example entries. Status: answers known.
N=C(N)c1ccc(C(NC(=O)CNS(=O)(=O)c2ccc3ccccc3c2)P(=O)(Oc2ccccc2)Oc2ccccc2)cc1 (stereo unspecified) = 31.8 µM (inactive)
c1ccc(/N=c2/[nH]c3ccccc3s/c2=N/c2ccccc2)cc1 = > 100 µM (inactive)
Cc1ccc(NC(=O)CCc2nnc(S)[nH]2)cc1 = > 100 µM (inactive)
CCOC(=O)/C(=C\c1ccccc1)C(=O)CCN1CCOCC1 = 15.2 µM (inactive)
C#CC1(O)CC(c2ccccc2)N(C)C(c2ccccc2)C1 (stereo unspecified) = > 100 µM (inactive)

// next entry
### Prompt # lookup: GI50 of COc1ccc(C(C)NNC(=O)c2cc[n+]([BH2-]C#N)cc2)cc1F (stereo unspecified)
### Response > 100 µM (inactive)

Provenance of the data: ChEMBL document CHEMBL1201862
